- System: serotonin (5HT) uptake, rat whole brain synaptosomes
- ASSAY INFO: Inhibition of [^3 H]-Serotonin Uptake in Rat Whole Brain Synaptosomes
- Format: biochemical
- EXPERIMENTAL PARAMETERS: at 3.16 μmn
METRIC NAME: % inhibition 5HT (%)
Report the figure in % without appending any unit label.

Inquiry: Please report the measured % inhibition 5HT for Cl.O=S1(=O)c2ccccc2C(c2ccc(F)cc2)N1C1CCNCC1 (stereo not shown)
Reply text: 37.92

Inquiry: Please supply the value of reported % inhibition 5HT for the item O=C(O)/C=C\C(=O)O.O=S1(=O)c2ccccc2C(c2ccc(Cl)cc2)N1C1CCN(CCO)CC1 (stereo not shown)
Reply text: 3.68

Inquiry: Indicate its recorded % inhibition 5HT; the compound in question is COc1cc(C(C)=O)ccc1OCCCN1CCC(N2C(c3ccc(Cl)cc3)c3ccccc3S2(=O)=O)CC1 (stereo not shown)
Reply text: 48.78

Inquiry: Recall and state the measured % inhibition 5HT for O=C(O)/C=C\C(=O)O.O=C1c2ccccc2C(=O)N1CCCN1CCC(N2C(c3ccc(Cl)cc3)c3ccccc3S2(=O)=O)CC1 (stereo not shown) .
Reply text: 29.02
